- tested.system: Heat shock factor protein 1 (Mus musculus)
- Sequence (P38532 whole entry): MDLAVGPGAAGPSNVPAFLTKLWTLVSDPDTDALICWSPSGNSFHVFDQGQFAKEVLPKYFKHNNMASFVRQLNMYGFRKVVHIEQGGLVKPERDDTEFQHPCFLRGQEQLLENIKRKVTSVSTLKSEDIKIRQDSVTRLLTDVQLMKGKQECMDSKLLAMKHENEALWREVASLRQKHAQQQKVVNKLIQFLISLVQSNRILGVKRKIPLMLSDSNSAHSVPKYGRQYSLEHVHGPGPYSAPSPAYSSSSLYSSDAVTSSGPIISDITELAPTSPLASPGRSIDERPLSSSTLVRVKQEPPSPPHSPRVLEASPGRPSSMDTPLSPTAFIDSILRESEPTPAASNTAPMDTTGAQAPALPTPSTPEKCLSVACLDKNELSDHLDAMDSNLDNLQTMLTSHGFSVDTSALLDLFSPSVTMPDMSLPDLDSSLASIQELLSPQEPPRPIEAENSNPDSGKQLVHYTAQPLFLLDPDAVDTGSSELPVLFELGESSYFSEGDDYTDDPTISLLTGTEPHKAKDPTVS
- measurement.description: enhancement of HSF1-driven luciferase signal – cell-based, NIH3T3, luminescence, dose retest, confirmation (AID 435004);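 note: stress induced by proteasome inhibitor MG132 added 30 min after compound; luciferase reporter driven by HSF1 response element in NIH3T3 cells; actives raise luminescence as potentiators of the MG132 stress response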
- Assay type: functional
The source made the active and inactive calls. Cut-off read from the data, not from the text of the source: actives have a measured EC50 and inactives only a lower limit.
Select the correct class. Options are t for active, f for inactive and nothing else.

Recorded results for 5 compounds are shown here.
O=C1CC(N2C(=O)/C(=C/C=C/c3ccccc3)SC2=S)C(=O)N1c1ccccc1 (stereo unspecified)    f
Fc1ccccc1-c1nc2nc3ccccc3nc2n1CC1CCCO1 (stereo unspecified)    f
O=C1CN(C(=O)c2ccc(Br)o2)C(c2ccc(F)cc2)c2cc(Cl)ccc2N1 (stereo unspecified)    f
Cc1nc2ccccc2nc(C)c1=NOCc1ccccc1Cl    f
CCC(NC(C)c1ccccc1)=C1C(=O)N(C)C(=O)N(C)C1=O (stereo unspecified)    f

Give the logged outcome of this assay for the following compound: `O=[N+]([O-])c1ccc(/C=[N+](\[O-])[C@@H]2CCCC[C@@H]2/[N+]([O-])=C/c2ccc([N+](=O)[O-])o2)o1`
t

Give the logged outcome of this assay for the following compound: `CCOc1ccccc1-c1noc(CCCC(=O)NC2CCCCC2)n1`
f

Give the logged outcome of this assay for the following compound: `COc1ccc(Cl)cc1N1C(=O)/C(=C\c2sccc2C)N=C1SCC(=O)NC1CC1`
f

Give the logged outcome of this assay for the following compound: CCc1ccc(NC(=O)COC(=O)/C=C/c2c(C)nn(C3CCS(=O)(=O)C3)c2Cl)cc1 (stereo unspecified)
f

Give the logged outcome of this assay for the following compound: `Oc1[nH]c2ccc(Br)cc2c1N=NC(=S)N1CCOCC1`
f

Give the logged outcome of this assay for the following compound: `CN1CCN(C(=O)c2ccc(Cn3cc(Cl)cn3)o2)CC1`
f
